The compounds listed here are annotated with their pIC50.
TARGET_OR_TEST_SYSTEM: TYK2 (Homo sapiens, UniProt P29597)
Sequence (P29597 whole entry): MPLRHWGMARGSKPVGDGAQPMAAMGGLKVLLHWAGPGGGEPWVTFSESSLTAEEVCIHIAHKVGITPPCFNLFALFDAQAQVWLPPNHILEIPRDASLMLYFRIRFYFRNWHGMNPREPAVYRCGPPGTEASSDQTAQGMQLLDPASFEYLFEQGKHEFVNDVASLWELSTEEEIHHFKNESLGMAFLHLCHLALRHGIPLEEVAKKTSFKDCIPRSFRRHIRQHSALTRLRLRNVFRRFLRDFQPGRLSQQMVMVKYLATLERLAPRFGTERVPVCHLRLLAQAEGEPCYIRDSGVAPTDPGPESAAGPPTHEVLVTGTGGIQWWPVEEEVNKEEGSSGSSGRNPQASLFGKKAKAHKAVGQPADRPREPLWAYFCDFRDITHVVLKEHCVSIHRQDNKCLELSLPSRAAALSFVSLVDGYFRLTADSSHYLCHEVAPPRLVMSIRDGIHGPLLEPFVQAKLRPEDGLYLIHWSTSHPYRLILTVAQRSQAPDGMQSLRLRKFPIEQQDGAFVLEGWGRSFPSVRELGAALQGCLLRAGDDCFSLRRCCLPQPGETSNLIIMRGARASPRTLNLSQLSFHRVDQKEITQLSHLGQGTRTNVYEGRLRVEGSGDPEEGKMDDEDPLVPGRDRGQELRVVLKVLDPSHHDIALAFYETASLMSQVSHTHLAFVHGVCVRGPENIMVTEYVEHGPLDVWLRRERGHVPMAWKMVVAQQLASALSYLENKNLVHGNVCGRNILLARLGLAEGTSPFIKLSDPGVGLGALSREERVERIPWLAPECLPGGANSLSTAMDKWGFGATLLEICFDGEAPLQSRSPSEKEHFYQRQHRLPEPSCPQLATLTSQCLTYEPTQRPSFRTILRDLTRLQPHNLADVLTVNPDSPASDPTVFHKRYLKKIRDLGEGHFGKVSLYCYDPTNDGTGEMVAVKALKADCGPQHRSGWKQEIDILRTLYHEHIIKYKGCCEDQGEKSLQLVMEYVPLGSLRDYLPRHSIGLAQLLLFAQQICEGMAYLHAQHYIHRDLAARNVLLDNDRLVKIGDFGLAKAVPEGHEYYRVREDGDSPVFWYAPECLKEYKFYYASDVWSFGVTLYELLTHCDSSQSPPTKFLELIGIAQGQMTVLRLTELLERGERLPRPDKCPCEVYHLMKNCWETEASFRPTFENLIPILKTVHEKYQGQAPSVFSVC
pIC50: −log10 of the molar value.
MEASURE: pIC50

>>> df
                              smiles_record  experimental_result
0  O=C1NCCOCc2cccc(c2)Nc2nc(ncc2F)Nc2cc(cnc2F)-c2ccc1cc2         5.00 to 6.00
1  Cc1cnc2nc1Nc1cccc(c1)CCCNC(=O)c1ccc(cc1[N+](=O)[O-])-c1cnc(F)c(c1)N2         6.00 to 7.00
2  Cc1cnc2nc1NCCCCCNC(=O)c1ccc(cc1S(C)(=O)=O)-c1cnc(F)c(c1)N2               < 5.00
3  Cc1cnc2nc1Nc1cccc(c1)CCCNC(=O)c1c(F)cc(cc1F)-c1cnc(F)c(c1)N2               < 5.00
4  Cc1cnc2nc1NCCCCCNC(=O)c1c(F)cc(cc1F)-c1cnc(F)c(c1)N2               < 5.00
5  Cc1cnc2nc1NCCCCCNC(=O)c1ccc(cc1C(=O)NCc1ccccc1)-c1cnc(F)c(c1)N2               < 5.00
6  Cc1cnc2nc1NCCCCCNC(=O)c1ccc(c(F)c1F)-c1cnc(F)c(c1)N2               < 5.00
7  Cc1cnc2nc1Nc1cc(ccc1F)CCNC(=O)c1ccc(cc1S(C)(=O)=O)-c1cnc(F)c(c1)N2               < 5.00

====

TARGET_OR_TEST_SYSTEM: TYK2 (Homo sapiens)
MEASURE: IC50

>>> print(df.to_string())
                              smiles_record  target_or_test_system  experimental_result
0  Cc1cnc2nc1Nc1cccc(c1)CCNC(=O)c1c(F)cc(cc1F)-c1cnc(F)c(c1)N2    TYK2 (Homo sapiens)              > 10 µM
1  Cc1cnc2nc1Nc1cc(ccc1O)CCNC(=O)c1ccc(cc1)-c1cnc(F)c(c1)N2    TYK2 (Homo sapiens)        0.101 to 1 µM
2  Cc1cnc2nc1NCCCCCNC(=O)c1ccc(cc1C(=O)Nc1ccccc1)-c1cnc(F)c(c1)N2    TYK2 (Homo sapiens)              > 10 µM
3  CNC(=O)c1cc2ccc1C(=O)NCCCCCNc1nc(ncc1C)Nc1cc-2cnc1F    TYK2 (Homo sapiens)              > 10 µM
4  Cc1cnc2nc1NCCCCCNC(=O)c1ccc(c(S(C)(=O)=O)c1)-c1cnc(F)c(c1)N2    TYK2 (Homo sapiens)              > 10 µM
5  Cc1cnc2nc1Nc1cccc(c1)CCNC(=O)c1ccc(cc1)-c1cnc(F)c(c1)N2    TYK2 (Homo sapiens)      0.011 to 0.1 µM
6  Cc1cnc2nc1NCCCCCNC(=O)c1ccc(cc1F)-c1cnc(F)c(c1)N2    TYK2 (Homo sapiens)           1 to 10 µM
7  Cc1cnc2nc1NCCCCCNC(=O)c1ccc(cc1Cl)-c1cnc(F)c(c1)N2    TYK2 (Homo sapiens)           1 to 10 µM

====

Data export: pIC50 values recorded with JAK1 (Homo sapiens, UniProt P23458).
Sequence (P23458 whole entry): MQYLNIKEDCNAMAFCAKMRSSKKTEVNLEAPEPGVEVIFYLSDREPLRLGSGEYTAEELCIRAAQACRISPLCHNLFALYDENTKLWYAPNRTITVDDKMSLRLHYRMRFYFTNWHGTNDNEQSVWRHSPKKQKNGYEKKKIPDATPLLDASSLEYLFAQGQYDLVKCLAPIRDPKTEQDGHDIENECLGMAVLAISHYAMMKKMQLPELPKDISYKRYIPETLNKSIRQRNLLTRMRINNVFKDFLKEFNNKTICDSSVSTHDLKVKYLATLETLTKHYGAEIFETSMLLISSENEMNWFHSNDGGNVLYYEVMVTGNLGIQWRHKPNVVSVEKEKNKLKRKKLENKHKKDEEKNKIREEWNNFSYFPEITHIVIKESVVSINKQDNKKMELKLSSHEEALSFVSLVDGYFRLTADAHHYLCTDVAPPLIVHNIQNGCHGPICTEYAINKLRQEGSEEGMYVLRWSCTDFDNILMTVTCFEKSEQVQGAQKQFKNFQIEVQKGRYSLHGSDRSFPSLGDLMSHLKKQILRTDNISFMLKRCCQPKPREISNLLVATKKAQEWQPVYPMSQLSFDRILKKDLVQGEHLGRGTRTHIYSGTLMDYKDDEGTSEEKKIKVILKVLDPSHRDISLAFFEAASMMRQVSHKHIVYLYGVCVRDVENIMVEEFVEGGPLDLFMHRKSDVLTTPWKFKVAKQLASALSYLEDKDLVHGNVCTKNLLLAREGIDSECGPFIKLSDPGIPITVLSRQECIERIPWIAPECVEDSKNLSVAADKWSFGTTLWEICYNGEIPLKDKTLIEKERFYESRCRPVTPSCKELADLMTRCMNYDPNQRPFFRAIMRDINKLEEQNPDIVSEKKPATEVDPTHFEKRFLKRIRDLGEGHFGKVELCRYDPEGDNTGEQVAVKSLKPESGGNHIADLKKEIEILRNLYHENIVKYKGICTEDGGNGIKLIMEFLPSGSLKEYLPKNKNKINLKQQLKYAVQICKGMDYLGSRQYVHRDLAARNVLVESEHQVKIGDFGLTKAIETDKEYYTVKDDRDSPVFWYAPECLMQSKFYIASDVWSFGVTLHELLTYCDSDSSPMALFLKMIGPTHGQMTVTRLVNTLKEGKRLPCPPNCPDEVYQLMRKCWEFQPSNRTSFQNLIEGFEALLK
pIC50: −log10 of the molar value.
MEASURE: pIC50

>>> df
                              smiles_record                target_or_test_system  measure  experimental_result
0  Cc1cnc2nc1NCCCCCNC(=O)c1ccc(cc1Cl)-c1cnc(F)c(c1)N2  JAK1 (Homo sapiens, UniProt P23458)    pIC50         6.00 to 7.00
1  Cc1cnc2nc1Nc1cccc(c1)CCCC(=O)N1CCN(CC1)c1cnc(F)c(c1)N2  JAK1 (Homo sapiens, UniProt P23458)    pIC50               > 8.00
2  CC(=O)Nc1cc2ccc1C(=O)NCCCCCNc1nc(ncc1C)Nc1cc-2cnc1F  JAK1 (Homo sapiens, UniProt P23458)    pIC50         6.00 to 7.00
3  Cc1cnc2nc1Nc1cccc(c1)CCCNC(=O)c1ccc(cc1)-c1cnc(F)c(c1)N2  JAK1 (Homo sapiens, UniProt P23458)    pIC50               > 8.00

====

Measured pIC50 on JAK1 (Homo sapiens, UniProt P23458) follows.
pIC50: −log10 of the molar value.
MEASURE: pIC50

>>> df
                                   compound  experimental_result
0  Cc1cnc2nc1NCCCCCNC(=O)c1ccc(cc1F)-c1cnc(F)c(c1)N2 [Compound 6]         7.00 to 7.96
1  Cc1cnc2nc1Nc1cccc(c1)CCCNC(=O)c1ccc(cc1C(=O)O)-c1cnc(F)c(c1)N2 [Compound 37]         7.00 to 7.96
2  Cc1cnc2nc1NCCCCCNC(=O)c1ccc(cc1C(=O)O)-c1cnc(F)c(c1)N2 [Compound 21]         6.00 to 7.00
3  Cc1cnc2nc1NCCCCCNC(=O)c1ccc(c(S(C)(=O)=O)c1)-c1cnc(F)c(c1)N2 [Compound 26]         5.00 to 6.00

====

TYK2 (Homo sapiens, UniProt P29597) measurements of IC50, listed per entry.
MEASURE: IC50

In [3]: df
Out[3]:
                              smiles_record  experimental_result
0  Cc1cnc2nc1Nc1ccccc1CCCNC(=O)c1ccc(cc1F)-c1cnc(F)c(c1)N2     1000 to 10000 nM
1  Cc1cnc2nc1Nc1cccc(c1)CCCC(=O)N1CCN(CC1)c1cnc(F)c(c1)N2       101 to 1000 nM
2  Cc1cnc2nc1NCCCCCCCNC(=O)c1ccc(cc1F)-c1cnc(F)c(c1)N2     1000 to 10000 nM
3  Cc1cnc2nc1NCCCCCNC(=O)c1ccc(cc1)-c1cnc(F)c(c1)N2           > 10000 nM
4  Cc1cc2ccc1C(=O)NCCCCCNc1nc(ncc1C)Nc1cc-2cnc1F     1000 to 10000 nM
5  Cc1cnc2nc1Nc1cc(ccc1F)CCCNC(=O)c1ncc(cc1F)-c1cnc(F)c(c1)N2     1000 to 10000 nM
6  Cc1cnc2nc1Nc1cccc(c1)CCCNC(=O)c1ccc(cc1F)-c1cnc(F)c(c1)N2       101 to 1000 nM
7  Cc1cnc2nc1NCCCCCNC(=O)c1ccc(cc1C(=O)O)-c1cnc(F)c(c1)N2     1000 to 10000 nM

====

So I've got IC50 readings for UniProt:P23458, take a look.
MEASURE: IC50

>>> df
                                   compound  measure  experimental_result
0  Cc1cnc2nc1Nc1ccccc1CCCNC(=O)c1ccc(cc1F)-c1cnc(F)c(c1)N2 [Compound 32]     IC50         11 to 100 nM
1  Cc1cnc2nc1Nc1ccccc1CCNC(=O)c1ccc(cc1F)-c1cnc(F)c(c1)N2 [Compound 30]     IC50         11 to 100 nM
2  Cc1cnc2nc1Nc1cccc(c1)CCNC(=O)c1ccc(cc1F)-c1cnc(F)c(c1)N2 [Compound 28]     IC50              < 10 nM
3  COC(=O)c1cc2ccc1C(=O)NCCCc1cccc(c1)Nc1nc(ncc1C)Nc1cc-2cnc1F [Compound 36]     IC50              < 10 nM
4  Cc1cnc2nc1Nc1cccc(c1)CCCCNC(=O)c1ccc(cc1)-c1cnc(F)c(c1)N2 [Compound 18]     IC50              < 10 nM
5  COc1cc2ccc1C(=O)NCCCCCNc1nc(ncc1C)Nc1cc-2cnc1F [Compound 8]     IC50       101 to 1000 nM
6  Cc1cnc2nc1Nc1cc(ccc1F)CCNC(=O)c1ccc(cc1S(C)(=O)=O)-c1cnc(F)c(c1)N2 [Compound 29]     IC50         11 to 100 nM
7  Cc1cnc2nc1NCCCCCNC(=O)c1ccc(cc1[N+](=O)[O-])-c1cnc(F)c(c1)N2 [Compound 10]     IC50         11 to 100 nM

====

IC50 listing for selected compounds.
TARGET_OR_TEST_SYSTEM: JAK3 (Homo sapiens, UniProt P52333)
Sequence (P52333 whole entry): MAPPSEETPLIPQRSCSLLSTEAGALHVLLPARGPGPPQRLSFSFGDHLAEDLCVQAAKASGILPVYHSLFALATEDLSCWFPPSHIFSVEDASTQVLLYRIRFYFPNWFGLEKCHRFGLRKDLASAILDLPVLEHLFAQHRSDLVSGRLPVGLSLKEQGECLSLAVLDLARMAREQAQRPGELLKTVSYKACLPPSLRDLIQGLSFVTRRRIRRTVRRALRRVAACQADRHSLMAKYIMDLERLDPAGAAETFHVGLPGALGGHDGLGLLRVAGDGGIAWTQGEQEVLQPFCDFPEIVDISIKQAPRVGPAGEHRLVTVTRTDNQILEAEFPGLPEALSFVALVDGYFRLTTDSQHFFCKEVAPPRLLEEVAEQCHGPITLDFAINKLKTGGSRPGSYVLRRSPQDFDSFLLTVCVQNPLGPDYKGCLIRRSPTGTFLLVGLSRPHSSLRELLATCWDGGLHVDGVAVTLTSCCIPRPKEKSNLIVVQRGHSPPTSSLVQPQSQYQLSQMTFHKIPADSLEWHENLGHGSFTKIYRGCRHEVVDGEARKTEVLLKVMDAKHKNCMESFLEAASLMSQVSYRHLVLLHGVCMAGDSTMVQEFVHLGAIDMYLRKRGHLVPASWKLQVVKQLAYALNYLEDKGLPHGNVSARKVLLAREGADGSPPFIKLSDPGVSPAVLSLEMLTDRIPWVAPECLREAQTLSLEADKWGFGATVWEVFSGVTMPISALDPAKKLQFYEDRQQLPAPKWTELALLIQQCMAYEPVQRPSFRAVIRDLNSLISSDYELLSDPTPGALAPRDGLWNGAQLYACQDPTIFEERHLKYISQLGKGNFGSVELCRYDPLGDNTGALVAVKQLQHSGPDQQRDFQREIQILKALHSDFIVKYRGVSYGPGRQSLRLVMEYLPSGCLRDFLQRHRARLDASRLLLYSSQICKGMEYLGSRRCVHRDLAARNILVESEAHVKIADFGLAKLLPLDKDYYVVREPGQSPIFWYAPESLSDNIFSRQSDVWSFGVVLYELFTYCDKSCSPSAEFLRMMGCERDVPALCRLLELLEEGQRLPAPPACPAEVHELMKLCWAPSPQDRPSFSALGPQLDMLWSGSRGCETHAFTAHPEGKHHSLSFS
MEASURE: IC50

>>> print(df.to_string())
                                    compound                target_or_test_system  experimental_result
 0  Cc1cnc2nc1Nc1cccc(c1)CCCC(=O)N1CCN(CC1)c1cnc(F)c(c1)N2 [Compound 35]  JAK3 (Homo sapiens, UniProt P52333)       101 to 1000 nM
 1  Cc1cnc2nc1NCCCCCCNC(=O)c1ccc(cc1F)-c1cnc(F)c(c1)N2 [Compound 13]  JAK3 (Homo sapiens, UniProt P52333)     1000 to 10000 nM
 2  Cc1cnc2nc1NCCCCCNC(=O)c1c(F)cc(cc1F)-c1cnc(F)c(c1)N2 [Compound 39]  JAK3 (Homo sapiens, UniProt P52333)     1000 to 10000 nM
 3  COC(=O)c1cc2ccc1C(=O)NCCCCCNc1nc(ncc1C)Nc1cc-2cnc1F [Compound 19]  JAK3 (Homo sapiens, UniProt P52333)     1000 to 10000 nM
 4  COC(=O)c1cc2ccc1C(=O)NCCCc1cccc(c1)Nc1nc(ncc1C)Nc1cc-2cnc1F [Compound 36]  JAK3 (Homo sapiens, UniProt P52333)         11 to 100 nM
 5  Cc1cnc2nc1NCCCCCNC(=O)c1ccc(cc1[N+](=O)[O-])-c1cnc(F)c(c1)N2 [Compound 10]  JAK3 (Homo sapiens, UniProt P52333)     1000 to 10000 nM
 6  COc1cnc2nc1NCCCCCNC(=O)c1ccc(cc1)-c1cnc(F)c(c1)N2 [Compound 5]  JAK3 (Homo sapiens, UniProt P52333)     1000 to 10000 nM
 7  Cc1cnc2nc1Nc1cccc(c1)CCCNC(=O)c1ccc(cc1F)-c1cnc(F)c(c1)N2 [Compound 23]  JAK3 (Homo sapiens, UniProt P52333)       101 to 1000 nM
 8  Cc1cnc2nc1Nc1ccc(F)c(c1)CCNC(=O)c1ccc(cc1S(C)(=O)=O)-c1cnc(F)c(c1)N2 [Compound 27]  JAK3 (Homo sapiens, UniProt P52333)       101 to 1000 nM
 9  Cc1cnc2nc1Nc1ccccc1CCNC(=O)c1ccc(cc1F)-c1cnc(F)c(c1)N2 [Compound 30]  JAK3 (Homo sapiens, UniProt P52333)       101 to 1000 nM
10  COc1cc2cc(c1)Nc1nc(ncc1C)Nc1cc(cnc1F)-c1ccc(cc1)C(=O)NCC2 [Compound 47]  JAK3 (Homo sapiens, UniProt P52333)     1000 to 10000 nM
11  Cc1cnc2nc1Nc1cc(ccc1O)CCNC(=O)c1ccc(cc1)-c1cnc(F)c(c1)N2 [Compound 48]  JAK3 (Homo sapiens, UniProt P52333)       101 to 1000 nM
12  O=C1NCCOCc2cccc(c2)Nc2nc(ncc2F)Nc2cc(cnc2F)-c2ccc1cc2 [Compound 16]  JAK3 (Homo sapiens, UniProt P52333)         11 to 100 nM
13  Cc1cnc2nc1NCCCCCNC(=O)c1ccc(c(F)c1)-c1cnc(F)c(c1)N2 [Compound 3]  JAK3 (Homo sapiens, UniProt P52333)       101 to 1000 nM
14  Cc1cnc2nc1Nc1cccc(c1)CCCNC(=O)c1ccc(cc1C(=O)O)-c1cnc(F)c(c1)N2 [Compound 37]  JAK3 (Homo sapiens, UniProt P52333)       101 to 1000 nM
